target: Histone deacetylase 4 (Homo sapiens); assay: Inhibition of human HDAC4 expressed in 293T cells
Sequence (P56524 whole entry): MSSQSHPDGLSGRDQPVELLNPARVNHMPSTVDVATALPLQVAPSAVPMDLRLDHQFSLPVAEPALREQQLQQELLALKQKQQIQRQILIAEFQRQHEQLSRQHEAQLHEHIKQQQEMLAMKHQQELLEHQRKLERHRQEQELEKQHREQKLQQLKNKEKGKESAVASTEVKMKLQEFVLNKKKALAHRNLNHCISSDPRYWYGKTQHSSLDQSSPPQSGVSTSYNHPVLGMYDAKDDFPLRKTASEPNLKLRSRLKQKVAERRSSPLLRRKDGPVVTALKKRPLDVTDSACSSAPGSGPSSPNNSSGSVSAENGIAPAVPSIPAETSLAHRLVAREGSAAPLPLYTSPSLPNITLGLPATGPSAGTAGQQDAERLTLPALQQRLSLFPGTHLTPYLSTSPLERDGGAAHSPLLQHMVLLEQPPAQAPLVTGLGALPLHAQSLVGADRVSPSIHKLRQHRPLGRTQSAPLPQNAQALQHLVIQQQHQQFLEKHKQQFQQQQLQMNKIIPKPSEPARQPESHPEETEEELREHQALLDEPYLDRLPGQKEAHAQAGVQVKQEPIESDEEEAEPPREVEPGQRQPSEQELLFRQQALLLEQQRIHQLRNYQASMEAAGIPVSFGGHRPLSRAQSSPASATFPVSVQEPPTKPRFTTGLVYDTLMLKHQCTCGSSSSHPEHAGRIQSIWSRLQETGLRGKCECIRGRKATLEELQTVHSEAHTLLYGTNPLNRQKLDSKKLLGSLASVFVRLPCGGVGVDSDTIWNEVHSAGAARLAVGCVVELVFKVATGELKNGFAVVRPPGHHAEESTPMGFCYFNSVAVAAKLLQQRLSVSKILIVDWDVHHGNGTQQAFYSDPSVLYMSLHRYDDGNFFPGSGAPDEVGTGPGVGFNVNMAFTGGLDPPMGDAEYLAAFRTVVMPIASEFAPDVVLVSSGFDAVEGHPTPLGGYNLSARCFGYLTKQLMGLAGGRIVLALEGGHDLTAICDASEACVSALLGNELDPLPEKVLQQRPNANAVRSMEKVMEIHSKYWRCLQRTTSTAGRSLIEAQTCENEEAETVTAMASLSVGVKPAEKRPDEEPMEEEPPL
Quick reference for IC50 among some compounds
assay.readout: IC50

INSERT INTO results (compound, assay_readout, result) VALUES
  ('CC(C)[C@H]1NC(=O)[C@@H](C)[C@@H](C/C=C\CCC(N)=O)NC(=O)[C@@H](Cc2ccccc2)NC(=O)[C@@H](C)NC1=O [AZUMAMIDE A]', 'IC50', '> 50 µM'),
  ('CC(C)[C@H]1NC(=O)[C@@H](C)[C@@H](C/C=C\CCC(N)=O)NC(=O)[C@@H](Cc2ccc(O)cc2)NC(=O)[C@@H](C)NC1=O [AZUMAMIDE B]', 'IC50', '3.66 µM'),
  ('C[C@@H]1C(=O)N[C@H](C)C(=O)N[C@H](C)C(=O)N[C@H](Cc2ccccc2)C(=O)N[C@@H]1C/C=C\CCC(N)=O [AZUMAMIDE D]', 'IC50', '> 50 µM'),
  ('CC(C)[C@H]1NC(=O)[C@@H](C)[C@@H](C/C=C\CCC(=O)O)NC(=O)[C@@H](Cc2ccccc2)NC(=O)[C@@H](C)NC1=O [AZUMAMIDE E]', 'IC50', '2.28 µM'),
  ('CC(C)[C@H]1NC(=O)[C@@H](C)[C@@H](C/C=C\CCC(=O)O)NC(=O)[C@@H](Cc2ccc(O)cc2)NC(=O)[C@@H](C)NC1=O [AZUMAMIDE C]', 'IC50', '3.16 µM');

====

target: Histone deacetylase 1 (Homo sapiens, UniProt Q13547); test: Inhibition of human HDAC1 expressed in 293T cells
Sequence (Q13547 whole entry): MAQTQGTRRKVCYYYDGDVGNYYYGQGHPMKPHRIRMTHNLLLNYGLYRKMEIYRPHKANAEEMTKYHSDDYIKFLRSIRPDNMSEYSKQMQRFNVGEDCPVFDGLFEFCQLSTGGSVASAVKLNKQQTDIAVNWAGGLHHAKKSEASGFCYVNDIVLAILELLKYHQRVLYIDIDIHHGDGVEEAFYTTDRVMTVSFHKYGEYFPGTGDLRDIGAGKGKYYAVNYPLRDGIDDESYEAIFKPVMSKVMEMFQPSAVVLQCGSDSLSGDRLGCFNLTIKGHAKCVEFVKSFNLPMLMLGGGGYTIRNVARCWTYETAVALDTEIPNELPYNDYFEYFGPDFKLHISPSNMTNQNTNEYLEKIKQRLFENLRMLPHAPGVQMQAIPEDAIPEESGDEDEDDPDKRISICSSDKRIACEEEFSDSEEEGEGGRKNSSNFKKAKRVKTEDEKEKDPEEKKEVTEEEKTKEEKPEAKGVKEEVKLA
pIC50: −log10 of the molar value.
assay.readout: pIC50

INSERT INTO results (compound, assay_readout, comparator, number) VALUES
  ('CC(C)[C@H]1NC(=O)[C@@H](C)[C@@H](C/C=C\CCC(=O)O)NC(=O)[C@@H](Cc2ccc(O)cc2)NC(=O)[C@@H](C)NC1=O [AZUMAMIDE C]', 'pIC50', '=', 5.93),
  ('CC(C)[C@H]1NC(=O)[C@@H](C)[C@@H](C/C=C\CCC(N)=O)NC(=O)[C@@H](Cc2ccc(O)cc2)NC(=O)[C@@H](C)NC1=O [AZUMAMIDE B]', 'pIC50', '=', 5.74),
  ('C[C@@H]1C(=O)N[C@H](C)C(=O)N[C@H](C)C(=O)N[C@H](Cc2ccccc2)C(=O)N[C@@H]1C/C=C\CCC(N)=O [AZUMAMIDE D]', 'pIC50', '<', 4.30),
  ('CC(C)[C@H]1NC(=O)[C@@H](C)[C@@H](C/C=C\CCC(N)=O)NC(=O)[C@@H](Cc2ccccc2)NC(=O)[C@@H](C)NC1=O [AZUMAMIDE A]', 'pIC50', '<', 4.30);

This collection of values is drawn from ChEMBL document CHEMBL1145603.
